Target: T1, RBFOX1 RRM RbFoxmut (Fox-RRM*) (Homo sapiens, UniProt Q9NWB1 109-208, R118D;E147R;N151S;E152T)
T1 sequence: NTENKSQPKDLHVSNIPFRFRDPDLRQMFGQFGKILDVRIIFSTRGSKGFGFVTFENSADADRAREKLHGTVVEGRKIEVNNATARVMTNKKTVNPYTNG
Assay: EMSA; HiTS-Eq, 1 nM pool, 10 min; buffer printed only for the single-RNA assays: 10 mM Tris pH 7.5, 150 mM NaCl, 3.4 mM EDTA, 0.001% NP-40, 30 C
Conditions: tags: His6 N-terminal (pET28a); label: 5' 32P
Over roughly 16,000 sequences, “ka relative to ugcaugu” has its median near 0.096; the highest 2% begin near 0.35. This excerpt belongs to a sample that is enriched for the highest values.
endpoint_label: binding signal

CAGGCUA (DNA:RNA) RNA: GGGAGACCGGAAUUCAGAUUGUCCCAGGCUAUUAAAUCCCGUCGUAGCCACCA DNA 1: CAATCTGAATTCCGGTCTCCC DNA 2: TGGTGGCTACGACGGGATT :: 0.0916 KA relative to UGCAUGU

Asked: Entry under review: AGCCUAC (DNA:RNA) RNA: GGGAGACCGGAAUUCAGAUUGUCCAGCCUACUUAAAUCCCGUCGUAGCCACCA DNA 1: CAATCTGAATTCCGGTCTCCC DNA 2: TGGTGGCTACGACGGGATT . Reported binding signal?
Given back: 0.0767 KA relative to UGCAUGU
